Readings of MIC for the listed molecules
- Tested on: Salmonella typhi Watson
- assay-details: minimal inhibiting concentration (MIC), Gram-negative bacteria
- Type: cell-based
- applied-conditions: Salmonella enterica
Express it in µg/mL; write the number only.

// worked examples, MIC included
// field: MIC; key: Cn1nnnc1SCC1=C(C(=O)O)N2C(=O)C(NC(=O)CSCC#N)C2SC1 (stereo not shown) [K 10299, reference compound] ; value = 0.2

// field: MIC; key: Cc1nnc(SCC2=C(C(=O)O)N3C(=O)C(NC(=O)CSCC#N)C3SC2)s1 (stereo not shown) [K 9227, reference compound] ; value = 0.8

// field: MIC; key: Cn1nnnc1SCC1=C(C(=O)O)N2C(=O)C(NC(=O)CS/C=C\C(N)=O)C2SC1 (stereo not shown) ; value = 0.2

More entries:
// field: MIC; key: Cc1nnc(SCC2=C(C(=O)O)N3C(=O)[C@@H](NC(=O)Cn4cnnn4)[C@H]3SC2)s1 [Cefazolin, reference compound] ; value = 1.6
